# Test system: RPMI-8226
# assayInfo: NCI tumour cell line growth inhibition, 48 h
About 4,800 (8.9%) of roughly 54,000 sequences were called active. The list is a sample of the results. Entries with a potency or affinity are not part of this list.
Entries and their measured log10(GI50) follow.
experimentalEndpoint: log10(GI50) (log10 of the value in µM)

substance	log10(GI50)
[Bis(aminomethyl)dimethylsilane]dichloroplatinum (II), CHEMBL2146201	1.09
mu-(1,7-nanodiamine-N,N')bis-(cis-aminedichloroplatimum (II)), CHEMBL2146215	1.42
[Bis(aminomethyl)ethylmethylsilane]tetrachloroplatinum(IV), CHEMBL2146192	0.12
[Bis(aminomethyl)pentamethylenesilane]tetrachloropaltinum(IV), CHEMBL2146204	0.66
CISPLATIN, CHEMBL11359	0.63
cis-Bis[[(trimethylsilyl)methyl]amino]tetrachloroplatinum(IV), CHEMBL2146191	0.29
